# Test system: RPMI-8226 leukemia
# method-notes: NCI-60 one-dose screen, 48 h
# condition-summary: 10 µM unless noted
About 83,000 compounds went through this panel and 20% of them were active in at least one assay; those are over-represented in the sample as a whole. Activity calls are given as the source filed them. How the source made its calls: active means growth percent below 10; inactive means the rest.
Outcomes: true (1) (active), false (0) (inactive)

                                    compound   system_under_test  label_value
 0  COc1ccc(-c2nn(-c3cccc(Cl)c3)cc2C2CC(c3ccccc3)=NN2C(C)=O)cc1 (stereo unspecified)  RPMI-8226 leukemia    false (0)
 1  Nc1nonc1-c1nc2ccccc2n1CC(=O)Nc1ccc2c(c1)COC2=O  RPMI-8226 leukemia    false (0)
 2  Fc1ccc(-c2nnc(/C=C/c3cn(-c4ccccc4)nc3-c3ccccc3)o2)cc1  RPMI-8226 leukemia    false (0)
 3                         CCCc1cccc(CCC)c1O  RPMI-8226 leukemia    false (0)
 4  CCOC(=O)C1=C(COCCN)NC(C)=C(C(=O)OC)C1c1ccccc1Cl (stereo unspecified)  RPMI-8226 leukemia    false (0)
 5         O=C(Cn1ccnc1)NC(c1ccccc1)c1ccccc1  RPMI-8226 leukemia    false (0)
 6  Cc1ccc(C(=O)Nc2ccc(Cl)cc2C(=O)NCc2ccccc2)cc1  RPMI-8226 leukemia    false (0)
 7  C[C@@H]1CC[C@H]2[C@@H](C)C(O)O[C@@H]3O[C@]4(C)CC[C@@H]1[C@]32OO4 (stereo partly specified)  RPMI-8226 leukemia     true (1)
 8       O=C1c2ccccc2-c2c1nc1ccccc1[n+]2[O-]  RPMI-8226 leukemia    false (0)
 9  NS(=O)(=O)c1ccc(NC2=C(Cl)C(=O)c3ccccc3C2=O)cc1  RPMI-8226 leukemia    false (0)
10  CC(C)[C@H]1CC[C@H]2[C@@H](CC[C@H]3[C@](C)(CN)CCC[C@]23C)C1  RPMI-8226 leukemia    false (0)

---

# Test system: SW-620 colon
# method-notes: NCI-60 one-dose screen, 48 h (100 = growth as untreated, 0 = no growth, -100 = all killed)
# condition-summary: 10 µM unless noted
About 83,000 compounds went through this panel and 20% of them were active in at least one assay; those are over-represented in the sample as a whole.
Here the recorded growth is given for each entry.

molecule	growth / %
O=C(CSCC(=O)N/N=C/c1ccccc1O)N/N=C\c1ccccc1O	39.3
COc1ccc2c(c1)C(=O)c1c-2c(=O)n(CCCCCCC(=O)NO)c2ccccc12	-27.4
COc1cc(/C=C/C(=O)N2CCN(C(=O)/C=C/c3ccccc3)CC2)cc(OC)c1OC	109
O=C(/C=C/c1cccnc1)/C=C/c1cccnc1	-68.6
Oc1ccccc1C=Nc1ccccc1N=Cc1ccccc1O.[Cu+2]	83.4
Cc1c(C)c(N2C(=O)C=CC2=O)c(C)c(C)c1N1C(=O)C=CC1=O	81.7
COc1c(O)cc2oc3cc(O)c(CC=C(C)C)c(O)c3c(=O)c2c1C/C=C(\C)CCC=C(C)C	41.5
CCOC(=O)C(C(C)=O)c1nc2sc3cc(Cl)ccc3n2c(=N)c1C#N (stereo not given)	98.4
O=C1CN(CO)C(=O)CN1CO	95.9
CC(=O)c1nc2ccccc2n1CCn1cc(CC(N)C(=O)O)c2ccccc21 (stereo not given)	114
COc1ccc(C2CC(c3ccc(OC)c(OC)c3)=NN2C(=O)c2cc(OC)c(OC)c(OC)c2)cc1 (stereo not given)	20.9
CCOC(=O)C1C(=O)OC2CCCCC21 (stereo not given)	110
Clc1ccc(CCC(Cn2ccnc2)Sc2c(Cl)cccc2Cl)cc1 (stereo not given)	65.2
S=C(Nc1ccc(C2=NCCN2)cc1)Nc1ccc(C2=NCCN2)cc1	107
CCCn1cnc2c1c(=O)n(CCCCC(C)=O)c(=O)n2C	97.7
O=C(/C=C/c1ccccc1Cl)c1ccc(O)cc1	40.9
CN1CCN(CC(=O)Nc2nc3c(s2)Nc2cc(Cl)c(Cl)cc2NC3=O)CC1	112
CCOC(=O)C1=C(C)N2C(=NC3=C(CCC/C3=C\c3ccc(Cl)cc3)C2c2ccc(Cl)cc2)S1 (stereo not given)	-59.8
COc1cc(-c2cc(C(=O)Nc3nc4ccccc4s3)nc3cc(-c4ccccc4)nn23)cc(OC)c1OC	55.7
CO[C@H]1CC(O[C@@H]2/C(C)=C/C[C@@H]3C[C@@H](C[C@]4(CC[C@H](C)[C@@H](C5CCCCC5)O4)O3)OC(=O)[C@@H]3C=C(C)/C(=N/O)[C@H]4OC/C(=C\C=C\[C@@H]2C)[C@]43O)O[C@@H](C)C1O (stereo not given in full)	-73.2

Hey, just so you know, these numbers are from PubChem BioAssay (NCI).
